Target: human glucagon-like peptide-1 receptor (GLP-1R) (human, UniProt P43220)
Assay: cell-based or functional assay
Numbered stars: 1 amine (or outer) side, 2 acyl side, 3 side chain; on linkers, the order of the positions; unused ones are H or OH. Square brackets hold non-standard residues; d marks the D form. Side chains are listed from the residue outwards. γGlu = O=C(O)[C@H](CCC(=O)[*:2])N[*:1]; AEEA = NCCOCCOCC(=O)O; Aib = CC(C)(N)C(=O)O
metric: Activity against human GLP-1R (EC50 nM); cAMP, HTRF

{"binder": "H-Y[Aib]EGTFTSDYSIYK([AEEA-AEEA-γGlu-C20‑OH])ERIAAQEFVNWLIAGGPSSGAPPPS-NH2 [compound 13# H-YAibEGTFTSDYSIYK(OEG-OEG-yGlu-C20-OH)ERIAAQEFVNWLIAGGPSSGAPPPS-NH2]", "numeric_value": 0.017}
{"binder": "H-Y[Aib]EGTFTSDYSIYK([AEEA-AEEA-γGlu-C20‑OH])EKIAAQEFVNWLLAGGPSSGAPPPS-NH2 [compound 18# H-YAibEGTFTSDYSIYK(OEG-OEG-yGlu-C20-OH)EKIAAQEFVNWLLAGGPSSGAPPPS-NH2]", "numeric_value": 0.013}
{"binder": "H-Y[Aib]EGTFTSDYSIYK([AEEA-AEEA-γGlu-C20‑OH])ERIAAQEFINWLIAGGPSSGAPPPS-NH2 [compound 15# H-YAibEGTFTSDYSIYK(OEG-OEG-yGlu-C20-OH)ERIAAQEFINWLIAGGPSSGAPPPS-NH2]", "numeric_value": 0.015}
